conditions: in ethanol, 303.15 K
property: solubility (mole fraction)

# input compound: CCOc1ccc2ccccc2c1C(=O)O ; wanted: its solubility (mole fraction)
0.0688

###

conditions: in methanol, 308.15 K
property: solubility (mole fraction)
The answer should be written as a number, with no unit following it.

# input molecule: CCOc1ccc2ccccc2c1C(=O)O ; wanted: its solubility (mole fraction)
0.0951

###

conditions: in ethanol, 323.15 K
property: solubility (mole fraction)
The answer should be written as a number, with no unit following it.

# input compound: CCOc1ccc2ccccc2c1C(=O)O ; wanted: its solubility (mole fraction)
0.136

###

settings: in n-propanol, 318.15 K
property: solubility (mole fraction)

# input compound: CCOc1ccc2ccccc2c1C(=O)O ; wanted: its solubility (mole fraction)
0.092

###

conditions: in methanol, 288.15 K
property: solubility (mole fraction)
The answer should be written as a number, with no unit following it.

# input compound: CCOc1ccc2ccccc2c1C(=O)O ; wanted: its solubility (mole fraction)
0.0443

###

settings: in n-propanol, 298.15 K
property: solubility (mole fraction)

# input compound: CCOc1ccc2ccccc2c1C(=O)O ; wanted: its solubility (mole fraction)
0.0424

###

settings: in methanol, 283.15 K
property: solubility (mole fraction)
The answer should be written as a number, with no unit following it.

# input compound: CCOc1ccc2ccccc2c1C(=O)O ; wanted: its solubility (mole fraction)
0.037

###

settings: in n-propanol, 303.15 K
property: solubility (mole fraction)

# input compound: CCOc1ccc2ccccc2c1C(=O)O ; wanted: its solubility (mole fraction)
0.0511

###

details: in ethanol, 293.15 K
property: solubility (mole fraction)
The answer should be written as a number, with no unit following it.

# input molecule: CCOc1ccc2ccccc2c1C(=O)O ; wanted: its solubility (mole fraction)
0.0469

###

conditions: in methanol, 318.15 K
property: solubility (mole fraction)
The answer should be written as a number, with no unit following it.

# input compound: CCOc1ccc2ccccc2c1C(=O)O ; wanted: its solubility (mole fraction)
0.134

###

conditions: in ethanol, 308.15 K
property: solubility (mole fraction)

# input molecule: CCOc1ccc2ccccc2c1C(=O)O ; wanted: its solubility (mole fraction)
0.0836

###

conditions: in methanol, 298.15 K
property: solubility (mole fraction)
The answer should be written as a number, with no unit following it.

# input molecule: CCOc1ccc2ccccc2c1C(=O)O ; wanted: its solubility (mole fraction)
0.0671

###

conditions: in methanol, 303.15 K
property: solubility (mole fraction)
The answer should be written as a number, with no unit following it.

# input compound: CCOc1ccc2ccccc2c1C(=O)O ; wanted: its solubility (mole fraction)
0.0821

###

conditions: in ethanol, 298.15 K
property: solubility (mole fraction)
The answer should be written as a number, with no unit following it.

# input molecule: CCOc1ccc2ccccc2c1C(=O)O ; wanted: its solubility (mole fraction)
0.0565

###

details: in methanol, 313.15 K
property: solubility (mole fraction)

# input compound: CCOc1ccc2ccccc2c1C(=O)O ; wanted: its solubility (mole fraction)
0.114

###

conditions: in n-propanol, 278.15 K
property: solubility (mole fraction)
The answer should be written as a number, with no unit following it.

# input compound: CCOc1ccc2ccccc2c1C(=O)O ; wanted: its solubility (mole fraction)
0.0212
